Note to self: these compounds have IC50 reported for Epidermal growth factor receptor (Homo sapiens, UniProt P00533) in various publications.
property: IC50 (nM)

- compound: "O=S(=O)(NCCO)c1ccc(Nc2nc3ncnc(Nc4ccc(F)c(Cl)c4)c3s2)cc1"
  reported_relation: "="
  experimental_value: 2.5
- compound: "C[C@@H](Nc1ncnc2[nH]c(-c3ccc(OCCCC(=O)NO)cc3)cc12)c1ccccc1"
  reported_relation: "<"
  experimental_value: 100
- compound: "C#Cc1cccc(Nc2ncnc3cc(OCCCCCCC(=O)NO)c(OCCOC)cc23)c1"
  reported_relation: "<"
  experimental_value: 100
- compound: "C=CC(=O)Nc1cc(-c2c(-c3ccc(N4CCN(C)CC4)nc3)[nH]c3nccc(Cl)c23)ccc1C"
  reported_relation: "≤"
  experimental_value: 100
- compound: "O=C(O)C(Cc1ccccc1)NCc1ccc(-c2ccc3ncnc(Nc4ccc(OCc5cccc(F)c5)c(Cl)c4)c3c2)o1 (stereo not shown)"
  reported_relation: "<"
  experimental_value: 10000
- compound: "COC[C@@H]1CN(c2cc3c(Nc4cccc(Cl)c4F)ncnc3cc2OC)C(=O)O1"
  reported_relation: "="
  experimental_value: 0.038
- compound: "COc1ccc(NC(=O)/C=C/CN(C)C)cc1Nc1ncc(Cl)c(Sc2ccc3ccccc3c2)n1"
  reported_relation: "≥"
  experimental_value: 10000
- compound: "CSc1nc(-c2cccc(NC(=O)c3c(F)cccc3F)c2)c(-c2ccnc(Nc3ccccc3)c2)[nH]1"
  reported_relation: "="
  experimental_value: 15
- compound: "COCCN(CCOC)Cc1ccc(Nc2nc3ncnc(Nc4ccc(F)c(Cl)c4)c3s2)cc1"
  reported_relation: "="
  experimental_value: 6.4
- compound: "O=C(Nc1ccc(Br)cc1)Nc1ncnc2nn3ccccc3c12"
  reported_relation: ">"
  experimental_value: 10000
- compound: "Cc1nn(C)c2c1CN(C)C[C@H](C)Oc1c(cnn1C)-c1ccc3[nH]nc(c3c1)/C=C/2"
  reported_relation: "="
  experimental_value: 457
- compound: "CCOc1nn(C)c2c1/C=C/c1n[nH]c3ccc(cc13)-c1cnn(C)c1O[C@@H](C)CN(C(C)C)C2"
  reported_relation: "="
  experimental_value: 19.3
- compound: "COc1ccc(Oc2ccc(Nc3ncnc4sc5c(c34)CCN(C(=O)/C=C/CN(C)C)C5)cc2C)cn1"
  reported_relation: ">"
  experimental_value: 10000
- compound: "CC1Cc2c(N3CCC(N4CCN(C)CC4)CC3)ccc(Nc3ncc(Br)c(Nc4cccc5c4N(S(C)(=O)=O)CC5)n3)c2O1 (stereo not shown)"
  reported_relation: "="
  experimental_value: 15.2

====

Note to self: these compounds have IC50 reported for Epidermal growth factor receptor (Homo sapiens, UniProt P00533) in various publications.
property: IC50

- compound: "Fc1cccc(COc2ccc(Nc3ncnc4ccc(-c5ccc(CNCC6CCCC(Cl)C6)o5)cc34)cc2Cl)c1 (stereo not shown)"
  experimental_value: "< 10 µM"
- compound: "CCN1CCC(Nc2ccc3c(c2)/C(=C(\\c2cccc(C(F)(F)F)c2)c2ncc[nH]2)C(=O)N3)CC1"
  experimental_value: "0.5 to 5 µM"
- compound: "C#Cc1cccc(Nc2ncnc3nc(Nc4ccc(CN5CCCCC5)cc4)sc23)c1"
  experimental_value: "0.0078 µM"
- compound: "Cc1ccnc(NC(=O)c2ccc(Oc3ccnc4[nH]nc(N[C@@H]5CCCN(S(C)(=O)=O)C5)c34)cc2)c1"
  experimental_value: "1 to 10 µM"
